Overview of recorded thermal stability score for various sequences
System: HeLa Kyoto
Assay: thermal stability score vs G1/S (z-score of summed log2 fold changes over temperatures); higher = more thermally stable than in G1/S
Settings: cell cycle stage: mitosis
Provide a numeric answer; units are not to be included.

Below: 2 sequences and their reported thermal stability score.
MGSRASTLLRDEELEEIKKETGFSHSQITRLYSRFTSLDKGENGTLSREDFQRIPELAINPLGDRIINAFFPEGEDQVNFRGFMRTLAHFRPIEDNEKSKDVNGPEPLNSRSNKLHFAFRLYDLDKDEKISRDELLQVLRMMVGVNISDEQLGSIADRTIQEADQDGDSAISFTEFVKVLEKVDVEQKMSIRFLH [CHP1] ... 0.839
MCGDCVEKEYPNRGNTCLENGSFLLNFTGCAVCSKRDFMLITNKSLKEEDGEEIVTYDHLCKNCHHVIARHEYTFSIMDEFQEYTMLCLLCGKAEDTISILPDDPRQMTLLF [CHURC1] ... -3.3

Please look up its thermal stability score: MAEGNHRKKPLKVLESLGKDFLTGVLDNLVEQNVLNWKEEEKKKYYDAKTEDKVRVMADSMQEKQRMAGQMLLQTFFNIDQISPNKKAHPNMEAGPPESGESTDALKLCPHEEFLRLCKERAEEIYPIKERNNRTRLALIICNTEFDHLPPRNGADFDITGMKELLEGLDYSVDVEENLTARDMESALRAFATRPEHKSSDSTFLVLMSHGILEGICGTVHDEKKPDVLLYDTIFQIFNNRNCLSLKDKPKVIIVQACRGANRGELWVRDSPASLEVASSQSSENLEEDAVYKTHVEKDFIAFCSSTPHNVSWRDSTMGSIFITQLITCFQKYSWCCHLEEVFRKVQQSFETPRAKAQMPTIERLSMTRYFYLFPGN [CASP4]
0.45

Please look up its thermal stability score: MLRSVWNFLKRHKKKCIFLGTVLGGVYILGKYGQKKIREIQEREAAEYIAQARRQYHFESNQRTCNMTVLSMLPTLREALMQQLNSESLTALLKNRPSNKLEIWEDLKIISFTRSTVAVYSTCMLVVLLRVQLNIIGGYIYLDNAAVGKNGTTILAPPDVQQQYLSSIQHLLGDGLTELITVIKQAVQKVLGSVSLKHSLSLLDLEQKLKEIRNLVEQHKSSSWINKDGSKPLLCHYMMPDEETPLAVQACGLSPRDITTIKLLNETRDMLESPDFSTVLNTCLNRGFSRLLDNMAEFFRPTEQDLQHGNSMNSLSSVSLPLAKIIPIVNGQIHSVCSETPSHFVQDLLTMEQVKDFAANVYEAFSTPQQLEK [PEX3]
0.184

Please look up its thermal stability score: MAGKQAVSASGKWLDGIRKWYYNAAGFNKLGLMRDDTIYEDEDVKEAIRRLPENLYNDRMFRIKRALDLNLKHQILPKEQWTKYEEENFYLEPYLKEVIRERKEREEWAKK [UQCRB]
-2.78

Please look up its thermal stability score: MAELDPFGAPAGAPGGPALGNGVAGAGEEDPAAAFLAQQESEIAGIENDEAFAILDGGAPGPQPHGEPPGGPDAVDGVMNGEYYQESNGPTDSYAAISQVDRLQSEPESIRKWREEQMERLEALDANSRKQEAEWKEKAIKELEEWYARQDEQLQKTKANNRVADEAFYKQPFADVIGYVTNINHPCYSLEQAAEEAFVNDIDESSPGTEWERVARLCDFNPKSSKQAKDVSRMRSVLISLKQAPLVH [CLTA]
-4.14

###

Tested on: HeLa Kyoto
Experiment: thermal stability score vs G1/S (z-score of summed log2 fold changes over temperatures); higher = more thermally stable than in G1/S
Conditions: cell cycle stage: early G1 (4.5 h after nocodazole release)
Overview of recorded thermal stability score for various sequences
Provide a numeric answer; units are not to be included.

Please look up its thermal stability score: MVWPWVAMASRWGPLIGLAPCCLWLLGAVLLMDASARPANHSSTRERVANREENEILPPDHLNGVKLEMDGHLNRGFHQEVFLGKDLGGFDEDAEPRRSRRKLMVIFSKVDVNTDRKISAKEMQRWIMEKTAEHFQEAMEESKTHFRAVDPDGDGHVSWDEYKVKFLASKGHSEKEVADAIRLNEELKVDEETQEVLENLKDRWYQADSPPADLLLTEEEFLSFLHPEHSRGMLRFMVKEIVRDLDQDGDKQLSVPEFISLPVGTVENQQGQDIDDNWVKDRKKEFEELIDSNHDGIVTAEELESYMDPMNEYNALNEAKQMIAVADENQNHHLEPEEVLKYSEFFTGSKLVDYARSVHEEF [SDF4]
2.12

Please look up its thermal stability score: MEGSLEREAPAGALAAVLKHSSTLPPESTQVRGYDFNRGVNYRALLEAFGTTGFQATNFGRAVQQVNAMIEKKLEPLSQDEDQHADLTQSRRPLTSCTIFLGYTSNLISSGIRETIRYLVQHNMVDVLVTTAGGVEEDLIKCLAPTYLGEFSLRGKELRENGINRIGNLLVPNENYCKFEDWLMPILDQMVMEQNTEGVKWTPSKMIARLGKEINNPESVYYWAQKNHIPVFSPALTDGSLGDMIFFHSYKNPGLVLDIVEDLRLINTQAIFAKCTGMIILGGGVVKHHIANANLMRNGADYAVYINTAQEFDGSDSGARPDEAVSWGKIRVDAQPVKVYADASLVFPLLVAETFAQKMDAFMHEKNED [DHPS]
-0.0223

Please look up its thermal stability score: MAATASAGAGGIDGKPRTSPKSVKFLFGGLAGMGATVFVQPLDLVKNRMQLSGEGAKTREYKTSFHALTSILKAEGLRGIYTGLSAGLLRQATYTTTRLGIYTVLFERLTGADGTPPGFLLKAVIGMTAGATGAFVGTPAEVALIRMTADGRLPADQRRGYKNVFNALIRITREEGVLTLWRGCIPTMARAVVVNAAQLASYSQSKQFLLDSGYFSDNILCHFCASMISGLVTTAASMPVDIAKTRIQNMRMIDGKPEYKNGLDVLFKVVRYEGFFSLWKGFTPYYARLGPHTVLTFIFLEQMNKAYKRLFLSG [SLC25A11]
-1.46

Please look up its thermal stability score: MAAAAAAGEARRVLVYGGRGALGSRCVQAFRARNWWVASVDVVENEEASASIIVKMTDSFTEQADQVTAEVGKLLGEEKVDAILCVAGGWAGGNAKSKSLFKNCDLMWKQSIWTSTISSHLATKHLKEGGLLTLAGAKAALDGTPGMIGYGMAKGAVHQLCQSLAGKNSGMPPGAAAIAVLPVTLDTPMNRKSMPEADFSSWTPLEFLVETFHDWITGKNRPSSGSLIQVVTTEGRTELTPAYF [QDPR]
-1.31

Please look up its thermal stability score: MADKEKKKKESILDLSKYIDKTIRVKFQGGREASGILKGFDPLLNLVLDGTIEYMRDPDDQYKLTEDTRQLGLVVCRGTSVVLICPQDGMEAIPNPFIQQQDA [LSM7]
-1.51

###

Tested on: HeLa Kyoto
Experiment: melting temperature (median over replicates), in situ; higher = more thermally stable
Settings: cell cycle stage: G1/S
Overview of recorded melting temperature for various sequences
Give the quantity in °C, number only.

MAATASAGAGGIDGKPRTSPKSVKFLFGGLAGMGATVFVQPLDLVKNRMQLSGEGAKTREYKTSFHALTSILKAEGLRGIYTGLSAGLLRQATYTTTRLGIYTVLFERLTGADGTPPGFLLKAVIGMTAGATGAFVGTPAEVALIRMTADGRLPADQRRGYKNVFNALIRITREEGVLTLWRGCIPTMARAVVVNAAQLASYSQSKQFLLDSGYFSDNILCHFCASMISGLVTTAASMPVDIAKTRIQNMRMIDGKPEYKNGLDVLFKVVRYEGFFSLWKGFTPYYARLGPHTVLTFIFLEQMNKAYKRLFLSG [SLC25A11] ... 59.1
MQNYKYDKAIVPESKNGGSPALNNNPRRSGSKRVLLICLDLFCLFMAGLPFLIIETSTIKPYHRGFYCNDESIKYPLKTGETINDAVLCAVGIVIAILAIITGEFYRIYYLKKSRSTIQNPYVAALYKQVGCFLFGCAISQSFTDIAKVSIGRLRPHFLSVCNPDFSQINCSEGYIQNYRCRGDDSKVQEARKSFFSGHASFSMYTMLYLVLYLQARFTWRGARLLRPLLQFTLIMMAFYTGLSRVSDHKHHPSDVLAGFAQGALVACCIVFFVSDLFKTKTTLSLPAPAIRKEILSPVDIIDRNNHHNMM [PLPP3] ... 57

--- query ---
Please look up its melting temperature: MAAVAATAAAKGNGGGGGRAGAGDASGTRKKKGPGPLATAYLVIYNVVMTAGWLVIAVGLVRAYLAKGSYHSLYYSIEKPLKFFQTGALLEILHCAIGIVPSSVVLTSFQVMSRVFLIWAVTHSVKEVQSEDSVLLFVIAWTITEIIRYSFYTFSLLNHLPYLIKWARYTLFIVLYPMGVSGELLTIYAALPFVRQAGLYSISLPNKYNFSFDYYAFLILIMISYIPIFPQLYFHMIHQRRKILSHTEEHKKFE [HACD2]
54.2

Sourced from the supplement of paper PMC5998384
